Provenance of the data: paper doi:10.1101/2023.11.24.568596v1

# system under test: MST1 (Homo sapiens, UniProt Q13043)
# Sequence (Q13043 1-487): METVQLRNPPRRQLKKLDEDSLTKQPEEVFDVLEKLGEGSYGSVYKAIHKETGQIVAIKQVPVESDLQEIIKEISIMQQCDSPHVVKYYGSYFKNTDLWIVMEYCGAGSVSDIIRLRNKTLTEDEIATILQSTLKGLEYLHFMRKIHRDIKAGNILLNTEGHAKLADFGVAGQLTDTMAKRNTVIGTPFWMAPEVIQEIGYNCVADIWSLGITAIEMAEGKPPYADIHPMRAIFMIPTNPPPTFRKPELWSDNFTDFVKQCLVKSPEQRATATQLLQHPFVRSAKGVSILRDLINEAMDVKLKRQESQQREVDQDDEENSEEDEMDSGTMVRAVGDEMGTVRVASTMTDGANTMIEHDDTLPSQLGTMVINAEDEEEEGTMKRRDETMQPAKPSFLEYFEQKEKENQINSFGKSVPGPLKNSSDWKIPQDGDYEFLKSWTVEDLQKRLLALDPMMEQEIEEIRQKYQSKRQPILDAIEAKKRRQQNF
# experimental setup: binder
measured endpoint: dTm MST1 (°C)

- Cc1cccc(-c2ccc(-c3cc4cnc(NCCCN5CCCC5=O)nc4n(CCCCN)c3=O)c(Cl)c2)n1: 1.1
- Cc1cccc(-c2ccc(-c3cc4cnc(NCCCc5ccc(N)cc5)nc4n(CCCCN)c3=O)c(Cl)c2)n1: 4.9
- Cc1cccc(-c2ccc(-c3cc4cnc(NCCCN5CCNCC5)nc4n(CCCCN)c3=O)c(Cl)c2)n1: 3.1
- Cc1cccc(-c2ccc(-c3cc4cnc(NC(CO)CO)nc4n(CCCCN)c3=O)c(Cl)c2)n1: 2.1
- Cc1cccc(-c2ccc(-c3cc4cnc(NCCCN5CCOCC5)nc4n(CCCCN)c3=O)c(Cl)c2)n1: 3.6
- COc1cc(N2CCN(C)CC2)ccc1Nc1ncc2cc(-c3ccc(-c4cccc(C)n4)cc3Cl)c(=O)n(CCCCN)c2n1: 4.0
- Cc1cccc(-c2ccc(-c3cc4cnc(Nc5ccc(O)cc5)nc4n(CCCCN)c3=O)c(Cl)c2)n1: 8.0

a = Cc1cccc(-c2ccc(-c3cc4cnc(Nc5ccc(C)c(O)c5)nc4n(CCCCN)c3=O)c(Cl)c2)n1
b = COc1cc(N2CCOCC2)ccc1Nc1ncc2cc(-c3ccc(-c4cccc(C)n4)cc3Cl)c(=O)n(CCCCN)c2n1
Ask | Lower value of dTm MST1 belongs to which: a or b ? # respond with the chosen item's label
Reply | b
(b: 4.6 °C, a: 8.1 °C)
